assay: Comparative pharmacokinetic study; conditions: male, human, in vivo, po
measurement-type: Tmax (h)

{"molecule": "CN(C)C(=N)N=C(N)N [Metformin, metformin]", "measurement-type": "Tmax", "readout-number": 4}
{"molecule": "CC(C)(C)OC[C@@H]1C(=O)NCCN1C(=O)C[C@H](N)Cc1cc(F)c(F)cc1F [Evogliptin, evogliptin]", "measurement-type": "Tmax", "readout-number": 5}

---

assay: Comparative pharmacokinetic study; conditions: male, human, in vivo, terminal half-life, present study
measurement-type: half-life

{"chemical-string": "CC(C)(C)OC[C@@H]1C(=O)NCCN1C(=O)C[C@H](N)Cc1cc(F)c(F)cc1F", "result": "> 24 h"}

The measured values listed here are drawn from paper PMC4835124.
